# target-or-system: DNA dC->dU-editing enzyme APOBEC-3F (Homo sapiens) (UniProt Q8IUX4)
# Sequence (Q8IUX4 whole entry, looked up): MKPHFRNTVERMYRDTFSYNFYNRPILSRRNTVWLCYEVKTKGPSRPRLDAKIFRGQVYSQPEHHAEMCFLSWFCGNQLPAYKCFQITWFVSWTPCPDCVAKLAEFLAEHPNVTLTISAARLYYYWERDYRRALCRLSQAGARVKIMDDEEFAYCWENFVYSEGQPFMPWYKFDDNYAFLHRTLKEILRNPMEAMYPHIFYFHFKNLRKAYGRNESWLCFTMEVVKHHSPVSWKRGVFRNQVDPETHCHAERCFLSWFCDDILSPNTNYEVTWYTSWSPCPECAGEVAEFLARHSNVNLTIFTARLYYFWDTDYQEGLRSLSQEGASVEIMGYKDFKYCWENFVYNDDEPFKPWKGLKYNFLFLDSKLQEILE
# protocol-text: qHTS for inhibitors of Vif-A3F interactions: Cherry picks counterscreen; note: nearly all actives have a fitted effect of over 65% in size; note: potency is the fitted concentration of half-maximal effect
# test-parameters: HeLa A3F-eYFP/Vif cells, eYFP fluorescence, 24 h; series mostly up to 46.1 µM
The campaign covered roughly 2,100 compounds. About 1,100 (52%) were called active. Another 29% or so got no clear call; they are omitted. The set was probably picked from earlier hits. Some of the results follow.

{"structure-string": "COc1ccc2nc(NC(=S)NC(=O)c3ccco3)sc2c1", "Potency": "inactive"}
{"structure-string": "COc1cc(-c2noc(C)c2/C=C/c2ccc(OC(C)=O)cc2)cc(OC)c1OC", "Potency": "0.627 µM (active)"}
{"structure-string": "COc1ccc(Cl)cc1NC(=O)CN(C)CC(=O)Nc1ccccc1N1CCOCC1", "Potency": "3.53 µM (active)"}
{"structure-string": "N#Cc1c(Nc2ccccc2)[n+]([O-])c2ccc(Cl)cc2[n+]1[O-]", "Potency": "inactive"}
{"structure-string": "COc1cc(/C=C2/CCC/C(=C\\c3cc(O)c(OC)c(Cl)c3)C2=O)cc(Cl)c1O", "Potency": "13 µM (active)"}
{"structure-string": "O=[N+]([O-])c1ccc(N2CCN(Cc3ccccc3)CC2)c2c1no[n+]2[O-]", "Potency": "15.8 µM (active)"}
{"structure-string": "O=C(Nc1nc2ccc(F)cc2s1)c1ccc([N+](=O)[O-])o1", "Potency": "15.8 µM (active)"}
{"structure-string": "CCOc1cc(/C=C2\\CN(C)C/C(=C\\c3ccc(O)c(OCC)c3)C2=O)ccc1O", "Potency": "2.5 µM (active)"}
{"structure-string": "CCOc1cc(/C=C2\\CCC/C(=C\\c3cc(Cl)c(O)c(OCC)c3)C2=O)cc(Cl)c1O", "Potency": "12.5 µM (active)"}
{"structure-string": "COc1cc(-c2noc(C)c2/C=C/c2cccc([N+](=O)[O-])c2)cc(OC)c1OC", "Potency": "1.58 µM (active)"}

====

# target-or-system: DNA dC->dU-editing enzyme APOBEC-3F (Homo sapiens)
# protocol-text: qHTS for inhibitors of Vif-A3F interactions: Cherry picks counterscreen; note: nearly all actives have a fitted effect of over 65% in size; note: potency is the fitted concentration of half-maximal effect
# test-parameters: HeLa A3F-eYFP/Vif cells, eYFP fluorescence, 24 h; series mostly up to 46.1 µM
# From the text: The recent discovery and characterization of host restriction factors, which provide a potent defense to invading retroviruses, has provided new targets for antiviral drug development. […] In the presence of an inhibitor, it is expected that Vif will be unable to degrade A3G-eYFP and/or A3F-eYFP, resulting in an increase in yellow fluorescence. […]
Out of some 2,100 compounds screened, about 1,100 (52%) were called active. Another 29% or so got no clear call; they are omitted. So high a share suggests a set chosen from earlier hits. The list shows a part of the results.

{"compound": "N#CC1=C(N)Oc2cc(N)ccc2C1c1cccc(F)c1 (configuration not stated)", "Potency": "2.5 µM (active)"}
{"compound": "N#C/C(=C/c1ccc(N2CCOCC2)o1)c1ccc(Cl)cc1", "Potency": "4.61 µM (active)"}
{"compound": "COc1ccc(OC)c(-c2cc(-c3cccnc3)nc(N)c2C#N)c1", "Potency": "3.53 µM (active)"}
{"compound": "N#C/C(=C/c1ccc(N2CCCCC2)o1)c1cccc(F)c1", "Potency": "4.11 µM (active)"}
{"compound": "COc1ccc(N=Cc2c(O)c3ccccc3n2C(C)=O)cc1", "Potency": "16.4 µM (active)"}
{"compound": "Cc1cccc2cc3c(N)c(C(=O)N4CCc5ccccc54)sc3nc12", "Potency": "6.51 µM (active)"}
{"compound": "Cc1oc(C)c2c(=O)ccc3c(c12)OC(N)=C(C#N)C3c1ccc(F)cc1 (configuration not stated)", "Potency": "inactive"}
{"compound": "COc1cc(/C=N/Nc2cc(C)nc(NS(=O)(=O)c3ccccc3)n2)ccc1O", "Potency": "inactive"}
{"compound": "Oc1ccc(/C=N\\Nc2nncc(-c3ccccc3)n2)cc1", "Potency": "19.8 µM (active)"}
{"compound": "CCn1c(SCC(=O)N/N=C/c2ccc(C)s2)nc2ccccc21", "Potency": "4.98 µM (active)"}
{"compound": "CC1=C(C(=O)Nc2cccc(F)c2)C(c2ccsc2)C2=C(CC(C)(C)CC2=O)N1 (configuration not stated)", "Potency": "2.8 µM (active)"}
{"compound": "COc1cccc(C(=O)c2sc3nc(-c4ccccc4)cc(C(F)(F)F)c3c2N)c1", "Potency": "2.06 µM (active)"}
{"compound": "Cc1ccc(NC(=O)C(=Cc2ccc(C(=O)O)cc2)C(=O)Nc2ccc(C)cc2C)c(C)c1", "Potency": "3.53 µM (active)"}
{"compound": "CCOC(=O)c1c(-c2ccc(OC)cc2)csc1/N=C/C1=C(O)CCCC1=O", "Potency": "inactive"}
{"compound": "COc1ccc(N=Cc2sc(O)c3ccccc23)cc1", "Potency": "15.8 µM (active)"}
{"compound": "CCN1/C(=C/C=C2/SC(=Nc3cccc4ncccc34)N(C)C2=O)Sc2ccccc21", "Potency": "2.31 µM (active)"}
{"compound": "COc1cc(C2C(C#N)=C(N)Oc3cc(O)ccc32)cc2c1OCO2 (configuration not stated)", "Potency": "15.8 µM (active)"}
{"compound": "CCNc1ccc(Br)cc(C(=O)/C=C/c2ccc3c(c2)OCO3)c1=O", "Potency": "18.4 µM (active)"}
{"compound": "COc1ccc(C(=O)c2sc3nc(-c4ccc(C)cc4)cc(C(F)(F)F)c3c2N)cc1", "Potency": "5.17 µM (active)"}
{"compound": "Clc1ccsc1-c1csc(-c2cccnc2)n1", "Potency": "15.8 µM (active)"}
{"compound": "COc1ccc(C2C(C#N)=C(N)Oc3c2ccc2cccnc32)cc1OC (configuration not stated)", "Potency": "3.53 µM (active)"}
{"compound": "Cc1ccc(/C(C#N)=C\\c2ccc(N3CCOCC3)o2)cc1", "Potency": "15.8 µM (active)"}
